Tgt: Epidermal growth factor receptor (Homo sapiens, UniProt P00533, T790M)
Sequence (P00533 25-1210 T790M limits assumed): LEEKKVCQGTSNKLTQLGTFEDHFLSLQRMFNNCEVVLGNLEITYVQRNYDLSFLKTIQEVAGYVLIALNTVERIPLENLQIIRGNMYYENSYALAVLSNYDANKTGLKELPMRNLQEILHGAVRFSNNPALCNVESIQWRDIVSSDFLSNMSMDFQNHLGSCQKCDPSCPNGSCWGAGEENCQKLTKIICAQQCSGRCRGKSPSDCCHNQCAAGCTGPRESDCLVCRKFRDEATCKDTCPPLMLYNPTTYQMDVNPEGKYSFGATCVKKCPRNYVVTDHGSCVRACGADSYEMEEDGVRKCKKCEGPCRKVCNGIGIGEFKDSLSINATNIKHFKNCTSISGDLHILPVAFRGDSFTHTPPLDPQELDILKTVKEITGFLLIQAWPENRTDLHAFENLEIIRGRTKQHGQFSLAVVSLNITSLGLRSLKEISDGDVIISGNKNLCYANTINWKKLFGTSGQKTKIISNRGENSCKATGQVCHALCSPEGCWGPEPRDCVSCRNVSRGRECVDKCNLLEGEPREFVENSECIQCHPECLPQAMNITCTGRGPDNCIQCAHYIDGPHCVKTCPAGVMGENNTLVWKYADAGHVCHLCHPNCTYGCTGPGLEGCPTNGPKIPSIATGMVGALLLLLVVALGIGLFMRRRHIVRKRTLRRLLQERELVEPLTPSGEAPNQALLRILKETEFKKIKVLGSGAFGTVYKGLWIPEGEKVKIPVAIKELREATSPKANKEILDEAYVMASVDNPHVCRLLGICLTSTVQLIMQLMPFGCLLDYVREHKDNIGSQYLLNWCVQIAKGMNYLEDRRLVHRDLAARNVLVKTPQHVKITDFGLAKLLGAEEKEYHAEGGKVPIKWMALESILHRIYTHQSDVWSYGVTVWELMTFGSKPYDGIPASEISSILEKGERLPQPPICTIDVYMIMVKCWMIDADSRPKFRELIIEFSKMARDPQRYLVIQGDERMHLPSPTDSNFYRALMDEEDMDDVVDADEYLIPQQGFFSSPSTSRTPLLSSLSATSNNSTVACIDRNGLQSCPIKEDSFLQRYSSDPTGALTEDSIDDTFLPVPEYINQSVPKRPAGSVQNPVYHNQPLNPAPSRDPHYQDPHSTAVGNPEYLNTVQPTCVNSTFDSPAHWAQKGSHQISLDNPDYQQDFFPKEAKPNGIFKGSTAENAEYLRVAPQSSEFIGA
Test protocol: Inhibition of EGFR T790M mutant (unknown origin) incubated for 40 mins by Kinase Glo Max reagent based luminescence analysis
pIC50: −log10 of the molar value.
Observed property: pIC50

COc1ccc(-c2nc(-c3ccc(-c4nc(-c5nnc(-c6ccncc6)o5)c[nH]4)cc3)no2)cc1 :: 5.92
COc1cc(-c2nc(-c3ccc(-c4nc(-c5nnc(-c6ccncc6)o5)c[nH]4)cc3)no2)cc(OC)c1OC :: 5.96
COc1cc(OC)cc(-c2nc(-c3ccc(-c4nc(-c5nnc(-c6ccncc6)o5)c[nH]4)cc3)no2)c1 :: 5.91
